- System Under Test: UniProtKB P14902
- Sequence (P14902 whole entry): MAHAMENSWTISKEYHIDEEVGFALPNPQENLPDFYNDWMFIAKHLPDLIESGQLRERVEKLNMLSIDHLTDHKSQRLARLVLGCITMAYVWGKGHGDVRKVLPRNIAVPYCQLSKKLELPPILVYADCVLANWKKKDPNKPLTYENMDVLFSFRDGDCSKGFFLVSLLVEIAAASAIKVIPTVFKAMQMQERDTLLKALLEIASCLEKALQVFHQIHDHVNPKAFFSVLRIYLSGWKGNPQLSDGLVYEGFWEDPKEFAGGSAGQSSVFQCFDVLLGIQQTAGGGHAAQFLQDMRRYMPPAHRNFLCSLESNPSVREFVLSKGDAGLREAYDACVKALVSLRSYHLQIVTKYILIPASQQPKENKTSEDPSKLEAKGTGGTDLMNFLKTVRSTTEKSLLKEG
- Test Name: Inhibition of IDO1 in human MDA-MB-231 cells
- Format: cell-based
Measured Endpoint: IC50 (nM)

Compound String	Value Measured
NS(=O)(=O)NCCNC(=O)c1n[nH]nc1/C(=N/O)Nc1ccc(F)c(Br)c1	28

###

- System Under Test: Indoleamine 2,3-dioxygenase 1 (Mus musculus, UniProt P28776)
- Sequence (P28776 whole entry): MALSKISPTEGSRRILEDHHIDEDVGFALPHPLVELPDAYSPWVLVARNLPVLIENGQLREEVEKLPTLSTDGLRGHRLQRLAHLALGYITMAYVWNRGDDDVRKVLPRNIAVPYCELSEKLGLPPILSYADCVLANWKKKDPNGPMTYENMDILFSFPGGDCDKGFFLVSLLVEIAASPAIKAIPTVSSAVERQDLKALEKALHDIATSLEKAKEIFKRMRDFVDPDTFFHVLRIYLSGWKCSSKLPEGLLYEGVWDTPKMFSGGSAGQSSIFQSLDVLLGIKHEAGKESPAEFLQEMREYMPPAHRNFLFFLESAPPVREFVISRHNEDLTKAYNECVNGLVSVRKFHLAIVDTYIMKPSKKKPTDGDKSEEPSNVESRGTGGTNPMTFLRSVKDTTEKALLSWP
- Test Name: Inhibition of IDO1 in mouse LLTC cell line
- Assay type: cell-based
pIC50: −log10 of the molar value.

Compound String	pIC50
COc1cccc2c1C(=O)C1=C(C[C@H](Cn3cc(-c4ccccc4)nn3)O[C@@H]1C)C2=O	5.22
COc1ccc2c(c1)C(=O)C1=C(C2=O)[C@@H](C)O[C@@H](CC(=O)O)C1	6.10
